Origin of values: patent US9388198B2

# assayed system: human recombinant P2X7 receptor (Homo sapiens (Human), UniProt Q99572)
# Sequence (Q99572 whole entry): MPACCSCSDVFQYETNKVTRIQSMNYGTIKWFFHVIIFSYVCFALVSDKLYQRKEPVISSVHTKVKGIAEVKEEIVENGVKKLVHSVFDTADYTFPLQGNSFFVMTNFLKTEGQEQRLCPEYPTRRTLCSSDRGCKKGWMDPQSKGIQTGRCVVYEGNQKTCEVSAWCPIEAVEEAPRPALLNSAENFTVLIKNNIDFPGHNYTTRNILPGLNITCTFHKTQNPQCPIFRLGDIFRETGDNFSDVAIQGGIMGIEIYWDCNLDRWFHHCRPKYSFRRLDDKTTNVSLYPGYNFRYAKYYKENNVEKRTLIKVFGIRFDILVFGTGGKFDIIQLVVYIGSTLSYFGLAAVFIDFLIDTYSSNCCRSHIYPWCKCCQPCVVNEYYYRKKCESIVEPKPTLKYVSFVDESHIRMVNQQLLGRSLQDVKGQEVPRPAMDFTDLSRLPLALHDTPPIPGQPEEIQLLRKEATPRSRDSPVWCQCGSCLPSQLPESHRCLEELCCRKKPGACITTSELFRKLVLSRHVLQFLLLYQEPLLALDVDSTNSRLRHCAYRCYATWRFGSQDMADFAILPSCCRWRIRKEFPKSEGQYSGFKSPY
# assay notes: YO-PRO1 uptake assay in HEK cells stably expressing human P2X7
# study conditions: HEK-293 cells expressing human recombinant P2X7; 250 μM ATP, 90 minutes; YO-PRO-1 fluorescence; read-out: IC50 (antagonistic activity with respect to the P2X7 receptor)
pIC50: −log10 of the molar value.
Threshold rule: pIC50 greater than or equal to 7 is Criterion met; below that, Criterion not met.

[[record]]
molecule = "O=C(N[C@H](CO)C1CCCCC1)C1CCCCc2ncsc21 (some centres unmarked) [Example 16]"
assayed_system = "human recombinant P2X7 receptor (Homo sapiens (Human), UniProt Q99572)"
category = "Criterion not met"

[[record]]
molecule = "Cc1ncc(C(CNC(=O)C2CCOc3ncsc32)N2CCOCC2)cn1 (centres unmarked) [Example 9]"
assayed_system = "human recombinant P2X7 receptor (Homo sapiens (Human), UniProt Q99572)"
category = "Criterion not met"

[[record]]
molecule = "O=C(NC(CO)C1CCCCCC1)C1COc2ncsc21 (centres unmarked) [Example 1]"
assayed_system = "human recombinant P2X7 receptor (Homo sapiens (Human), UniProt Q99572)"
category = "Criterion not met"

[[record]]
molecule = "O=C(NCC(c1cnc(C(F)(F)F)nc1)N1CCOCC1)C1CCCc2ncsc21 (centres unmarked) [Example 15]"
assayed_system = "human recombinant P2X7 receptor (Homo sapiens (Human), UniProt Q99572)"
category = "Criterion met"

[[record]]
molecule = "Cc1ncc(C(CNC(=O)C2CCc3ncsc32)N2CCOCC2)cn1 (centres unmarked) [Example 6]"
assayed_system = "human recombinant P2X7 receptor (Homo sapiens (Human), UniProt Q99572)"
category = "Criterion not met"

[[record]]
molecule = "O=C(N[C@H](CO)C1CCCCC1)C1CCCc2ncsc21 (some centres unmarked) [Example 12]"
assayed_system = "human recombinant P2X7 receptor (Homo sapiens (Human), UniProt Q99572)"
category = "Criterion met"

[[record]]
molecule = "O=C(N[C@H](CO)C1CCCCC1)C1CCc2ncsc21 (some centres unmarked) [Example 5]"
assayed_system = "human recombinant P2X7 receptor (Homo sapiens (Human), UniProt Q99572)"
category = "Criterion not met"

[[record]]
molecule = "C[C@@H](NC(=O)C1CCCc2ncsc21)C1CCCCC1 (some centres unmarked) [Example 11]"
assayed_system = "human recombinant P2X7 receptor (Homo sapiens (Human), UniProt Q99572)"
category = "Criterion met"


---

# assayed system: human recombinant P2X7 receptor (Homo sapiens (Human))
# assay notes: YO-PRO1 uptake assay in HEK cells stably expressing human P2X7
# Assay type: cell-based
# study conditions: HEK-293 cells expressing human recombinant P2X7; 250 μM ATP, 90 minutes; YO-PRO-1 fluorescence; read-out: IC50 (antagonistic activity with respect to the P2X7 receptor)
pIC50: −log10 of the molar value.
readout kind: pIC50

[[record]]
compound = "O=C(NCC1(c2ccc(Cl)nc2)CCCCC1)C1COc2ncsc21 (stereo not drawn)"
value_observed = 7.55

[[record]]
compound = "O=C(N[C@H](CO)C1CCCCC1)C1CCCCc2ncsc21 (stereo partly drawn) [Example 17]"
value_observed = 6.27

[[record]]
compound = "O=C(NCC(c1ccc(C(F)(F)F)nc1)N1CCOCC1)C1COc2ncsc21 (stereo not drawn)"
value_observed = 6.48

[[record]]
compound = "O=C(N[C@H](CO)C1CCCCC1)C1CCOc2ncsc21 (stereo partly drawn)"
value_observed = 6.47

[[record]]
compound = "O=C(NCC(c1ccc(Cl)nc1)N1CCC(F)(F)CC1)C1CCOc2ncsc21 (stereo not drawn)"
value_observed = 7.13

[[record]]
compound = "Cc1ncc(C(CNC(=O)C2CCc3ncsc32)N2CCC(F)(F)CC2)cn1 (stereo not drawn)"
value_observed = 6.32

[[record]]
compound = "Cc1ncc(C(CNC(=O)C2COc3ncsc32)N2CCC(F)(F)CC2)cn1 (stereo not drawn)"
value_observed = 5.69

[[record]]
compound = "O=C(NCC1(c2ccc(Cl)nc2)CCCCC1)C1CCCc2ncsc21 (stereo not drawn)"
value_observed = 8.47

[[record]]
compound = "O=C(NCC1(c2ccc(Cl)nc2)CCC(F)(F)CC1)C1CCCc2ncsc21 (stereo not drawn)"
value_observed = 8.20

